Hey, just so you know, these numbers are from PubChem BioAssay (EPA / NIEHS).

- Test system: Sodium/Iodide Symporter (NIS), SLC5A5 (gene 6528)
- assay.method.text: CPHEA_Stoker_NIS_Inhibition_RAIU: CPHEA's Radioactive Iodide Uptake (RAIU) Assay for Sodium/Iodide Symporter (NIS) Inhibition, Stoker and Laws Labs (AID 2283841)
Inconclusive results are not listed. Calls of active or inactive are those of the source. Rule for the calls: active = hit-call score of the fitted dose curve at least 0.9, where 1 is the maximum; inconclusive = response in the unintended direction; inactive = score below 0.9.
Thanks in advance; please answer with one of these: active, inactive

Reference set (5 entries):
>  <compound>
CC(C)(c1cc(Br)c(O)c(Br)c1)c1cc(Br)c(O)c(Br)c1

>  <cat>
active

$$$$
>  <compound>
Clc1cc(Cl)c2c(c1)N=C1CCCCCN1C2

>  <cat>
inactive

$$$$
>  <compound>
O=c1[nH]sc2ccccc12

>  <cat>
inactive

$$$$
>  <compound>
CN1C(=O)N(c2ccccc2Br)Cc2cnc(Nc3ccc4c(c3)OCC(CO)O4)nc21 (stereo not given)

>  <cat>
inactive

$$$$
>  <compound>
COc1cc(C(=O)NC2CCN(C)CC2)ccc1Nc1ncc2c(n1)N(C1CCCC1)CC(F)(F)C(=O)N2C

>  <cat>
inactive

$$$$

Task item: Returns: the outcome recorded for O=C(Nc1ccc(Cl)cc1)Nc1ccc(Cl)c(Cl)c1 in this assay.
Reply: inactive

Task item: Returns: the outcome recorded for CC(C)(C)c1csc(-c2cc3cc(OCc4ccccc4CC(=O)O)ccc3o2)n1 in this assay.
Reply: active

Task item: Returns: the outcome recorded for Cc1c2ccccc2c(C)c2c1ccc1ccccc12 in this assay.
Reply: inactive

Task item: Returns: the outcome recorded for CN(C)C(=O)C1(N2CCCCC2)CCN(CC[C@@]2(c3ccc(Cl)c(Cl)c3)CN(C(=O)c3ccccc3)CCO2)CC1 in this assay.
Reply: inactive

Task item: Returns: the outcome recorded for CC(=O)N1CCN(c2ccc(OC[C@H]3CO[C@](Cn4ccnc4)(c4ccc(Cl)cc4Cl)O3)cc2)CC1 in this assay.
Reply: active

----------
- Read-out: Cellular tumor antigen p53 (Homo sapiens) (UniProt P04637)
- Sequence (P04637 whole entry, looked up): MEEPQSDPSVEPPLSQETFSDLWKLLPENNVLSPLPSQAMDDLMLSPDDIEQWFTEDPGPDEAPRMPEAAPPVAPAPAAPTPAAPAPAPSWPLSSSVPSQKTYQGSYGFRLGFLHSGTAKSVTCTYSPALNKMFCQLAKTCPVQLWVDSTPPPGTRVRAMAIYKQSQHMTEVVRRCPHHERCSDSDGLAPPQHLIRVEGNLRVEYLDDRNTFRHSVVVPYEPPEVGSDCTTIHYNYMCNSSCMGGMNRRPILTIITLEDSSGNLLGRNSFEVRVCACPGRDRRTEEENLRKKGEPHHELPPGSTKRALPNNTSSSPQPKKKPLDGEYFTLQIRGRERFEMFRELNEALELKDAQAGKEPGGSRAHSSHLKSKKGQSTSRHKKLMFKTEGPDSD
- assay.method.text: LTEA_HepaRG_TP53: Life Technologies and Expression Analysis (LTEA) Assay for Tumor Protein P53 (TP53) using HepaRG (AID 2283537)
- run.parameters: mRNA level, 48 h; actives raise or lower the signal
Calls of active or inactive are those of the source. How the source made its calls: active means hit-call score of the fitted dose curve at least 0.9, where 1 is the maximum; inactive means score below 0.9.
observed.property: AC50

Use the examples below as a reference point.
>  <smiles.structure>
c1ccc2ccccc2c1

>  <AC50>
inactive

$$$$
>  <smiles.structure>
CN1C(=O)CC[C@H]1c1cccnc1

>  <AC50>
inactive

$$$$
>  <smiles.structure>
CN(C)c1ccc(C(=C2C=CC(=[N+](C)C)C=C2)c2ccc(N(C)C)cc2)cc1

>  <AC50>
23.3 µM (active)

$$$$
>  <smiles.structure>
Clc1ccccc1C(c1ccccc1)(c1ccccc1)n1ccnc1

>  <AC50>
28 µM (active)

$$$$
>  <smiles.structure>
CC[C@H](NC(=O)c1cc(F)ccc1NS(=O)(=O)c1cccc2cccnc12)c1ccccc1

>  <AC50>
inactive

$$$$

Task item: Could you please provide reported AC50 for CCCC(=O)OCCC(C)C ? Thanks!
Reply: inactive

Task item: Could you please provide reported AC50 for CC1=CC(=O)/C(=C(/C)O)C(=O)O1 ? Thanks!
Reply: inactive

Task item: Could you please provide reported AC50 for CCCCCCCCOC(=O)c1cc(O)c(O)c(O)c1 ? Thanks!
Reply: inactive

Task item: Could you please provide reported AC50 for OCCO ? Thanks!
Reply: 9.97 µM (active)

Task item: Could you please provide reported AC50 for CCCCCCCCN(C)CCCCCCCC ? Thanks!
Reply: inactive

Task item: Could you please provide reported AC50 for O=C1O[C@H]([C@@H](O)CO)C(O)=C1O ? Thanks!
Reply: inactive

Task item: Could you please provide reported AC50 for Cc1ncc(CO)c(CO)c1O ? Thanks!
Reply: inactive

----------
- assay.method.text: ATG_RORE_CIS: Attagene CIS-FACTORIAL HepG2 Assay for human RAR-related Orphan Receptor Element (RORE) (AID 2282959)
- run.parameters: HepG2 Attagene cis-factorial RORE reporter, mRNA; actives raise or lower the signal
Activity calls are given as the source filed them. How the source made its calls: active means hit-call score of the fitted dose curve at least 0.9, where 1 is the maximum; inactive means score below 0.9.
Thanks in advance; please answer with one of these: y for active, n for inactive

Reference set (5 entries):
>  <compound>
Clc1ccccc1C(c1ccccc1)(c1ccccc1)n1ccnc1

>  <cat>
y

$$$$
>  <compound>
c1ccc2n[nH]nc2c1

>  <cat>
n

$$$$
>  <compound>
O=C1c2ccccc2C(=O)N1CCc1noc(-c2ccc(CN3CCCCCC3)s2)n1

>  <cat>
n

$$$$
>  <compound>
O=C(Nc1ccc(Cl)cc1)Nc1ccc(Cl)c(Cl)c1

>  <cat>
y

$$$$
>  <compound>
OC12N=C(c3ccccc3)SC1Cc1cc(Cl)ccc12 (configuration not stated)

>  <cat>
n

$$$$

Task item: Returns: the outcome recorded for Cc1cc2c(cc1C(F)(F)F)N(C(=O)Nc1ccc(Oc3cccnc3C)nc1)CC2 in this assay.
Reply: n

Task item: Returns: the outcome recorded for O=C(O)Cn1c(=O)n(Cc2ccc(Br)cc2F)c(=O)c2ccc(Cl)cc21 in this assay.
Reply: n

----------
- assay.method.text: APR_HepG2_MicrotubuleCSK_24hr: Apredica 24-hour HepG2 Assay for Microtubule CSK Stabilty (AID 2282909)
- run.parameters: HepG2 microtubule cytoskeleton imaging, actives raise or lower the signal
Calls of active or inactive are those of the source. The calls were made as follows: active = hit-call score of the fitted dose curve at least 0.9, where 1 is the maximum; inactive = score below 0.9.
Thanks in advance; please answer with one of these: active, inactive

>  <compound>
CCN(CC)C(=O)c1cc(S(=O)(=O)Cc2ccccc2)c(N2CCC(c3ccccc3)CC2)cc1N(CC)CCN(C)C

>  <cat>
active

$$$$
>  <compound>
CCCCCCCCCCCC[N+](C)(C)C

>  <cat>
inactive

$$$$
>  <compound>
Cc1cc(F)ccc1-c1cc(N2CC[C@@H](O)[C@H]2CO)ncc1N(C)C(=O)C(C)(C)c1cc(C(F)(F)F)cc(C(F)(F)F)c1

>  <cat>
inactive

$$$$

Task item: Returns: the outcome recorded for COc1cc(C(=O)NC2CCN(C)CC2)ccc1Nc1ncc2c(n1)N(C1CCCC1)CC(F)(F)C(=O)N2C in this assay.
Reply: inactive

Task item: Returns: the outcome recorded for CC(C)(C)c1csc(-c2cc3cc(OCc4ccccc4CC(=O)O)ccc3o2)n1 in this assay.
Reply: inactive

Task item: Returns: the outcome recorded for O=C1c2ccccc2C(=O)N1CCc1noc(-c2ccc(CN3CCCCCC3)s2)n1 in this assay.
Reply: inactive

Task item: Returns: the outcome recorded for Clc1cc(Cl)c2c(c1)N=C1CCCCCN1C2 in this assay.
Reply: inactive

Task item: Returns: the outcome recorded for CN(C[C@@H](CC[N+]12CCC(C3CCCCC3)(CC1)CC2)c1ccc(Cl)c(Cl)c1)C(=O)c1cc(C(F)(F)F)cc(C(F)(F)F)c1 in this assay.
Reply: active

----------
- experimental.target: human Adrenergic, Beta 1 Receptor (Adrb1), ADRB1 (gene 153) (UniProt P08588)
- Sequence (P08588 whole entry, looked up): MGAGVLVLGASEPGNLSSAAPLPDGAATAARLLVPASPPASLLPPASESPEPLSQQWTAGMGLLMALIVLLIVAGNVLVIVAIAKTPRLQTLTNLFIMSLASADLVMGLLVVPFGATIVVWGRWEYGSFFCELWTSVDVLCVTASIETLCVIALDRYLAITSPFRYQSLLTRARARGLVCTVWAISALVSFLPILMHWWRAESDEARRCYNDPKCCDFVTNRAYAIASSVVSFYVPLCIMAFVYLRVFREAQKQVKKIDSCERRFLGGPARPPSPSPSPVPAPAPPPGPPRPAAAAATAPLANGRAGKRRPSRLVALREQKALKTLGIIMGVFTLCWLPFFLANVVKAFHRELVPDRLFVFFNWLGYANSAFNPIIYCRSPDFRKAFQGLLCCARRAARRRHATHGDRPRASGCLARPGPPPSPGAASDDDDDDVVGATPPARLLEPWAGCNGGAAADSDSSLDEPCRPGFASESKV
- assay.method.text: NVS_GPCR_hAdrb1: NovaScreen (NVS) G Protein-Coupled Receptor Assay for human Adrenergic, Beta 1 Receptor (Adrb1) (AID 2283258)
Records with an inconclusive call do not appear. Calls of active or inactive are those of the source. How the source made its calls: active means hit-call score of the fitted dose curve at least 0.9, where 1 is the maximum; inconclusive means response in the unintended direction; inactive means score below 0.9.
Thanks in advance; please answer with one of these: active, inactive

>  <smiles.structure>
CCCCCCCCOc1ccc(C(=O)c2ccccc2)c(O)c1

>  <cat>
inactive

$$$$

Task item: Returns: the outcome recorded for CCCCCCCCOC(=O)c1cc(O)c(O)c(O)c1 in this assay.
Reply: active

Task item: Returns: the outcome recorded for CC/C(=C(/CC)c1ccc(O)cc1)c1ccc(O)cc1 in this assay.
Reply: active

Task item: Returns: the outcome recorded for NCc1cccc(C2CCN(C(=O)c3ccc(C#Cc4ccccc4F)o3)CC2)c1 in this assay.
Reply: active

----------
- System: bovine Histamine 1 Receptor (H1), gene 281231
- assay.method.text: NVS_GPCR_bH1: NovaScreen (NVS) G Protein-Coupled Receptor Assay for bovine Histamine 1 Receptor (H1) (AID 2283246)
Records with an inconclusive call do not appear. Active and inactive are the calls of the source. The calls were made as follows: active = hit-call score of the fitted dose curve at least 0.9, where 1 is the maximum; inconclusive = response in the unintended direction; inactive = score below 0.9.
observed.property: AC50

Use the examples below as a reference point.
>  <smiles.structure>
CC(C)(C)c1cc(/C=C2\SC(N)=NC2=O)cc(C(C)(C)C)c1O

>  <AC50>
inactive

$$$$
>  <smiles.structure>
O=CCCCC=O

>  <AC50>
inactive

$$$$
>  <smiles.structure>
COc1cccc([C@H](O)C2CCN(CCc3ccc(F)cc3)CC2)c1OC

>  <AC50>
5.41 µM (active)

$$$$
>  <smiles.structure>
O=C1c2ccccc2C(=O)N1CCc1noc(-c2ccc(CN3CCCCCC3)s2)n1

>  <AC50>
12.1 µM (active)

$$$$

Let us examine a further case.
Task item: Could you please provide reported AC50 for Cc1ccc2oc(CN(Cc3ccccc3)C(=O)Nc3c(F)cc(F)cc3F)c(-c3ccc(Cl)cc3)c2c1 ? Thanks!
Reply: inactive
